- Test system: LOX IMVI melanoma
- ASSAY REMARKS: NCI tumour cell line growth inhibition, 48 h
ASSAY READOUT: TGI

These solved cases illustrate the format of a correct answer.
1. CC1=C(C(=O)OC2CC3CCC2(C)C3(C)C)C2Nc3ccccc3N(C)C2O1 (stereo not given)	6.12 µM
2. COc1ccccc1Nc1nc2c([nH]1)c(=O)n(C)c(=O)n2C	> 10 µM
3. CSc1ncnc2c1ncn2CCC(=O)O	> 100 µM
4. O=C(O)c1cc(-c2ccc3cc4c(cc3c2)OCO4)nc2ccccc12	> 100 µM
5. COc1cc(C(=O)NC2CCc3cc(OC)c(OC)c(OC)c3-c3ccc(OC)c(=O)cc32)cc(OC)c1OC (stereo not given)	> 100 µM

Input: What does the record list as TGI for "CCN(CC)CCCNc1nccc2c(C)c3c(cc12)c1cnccc1n3C" ?
Output: 0.268 µM

Input: What does the record list as TGI for "Cc1ccc2c(=O)cc(-c3sccc3C)[nH]c2n1" ?
Output: > 38.1 µM

----------
- Test system: K-562 leukemia
- ASSAY REMARKS: NCI tumour cell line growth inhibition, 48 h
Some compounds, each annotated with its measured TGI.

These solved cases illustrate the format of a correct answer.
1) CCOC1OC(COC(=O)C(C)(C)C)C(O)CC1n1cc(C)c(=O)[nH]c1=O (centres undefined)	> 100 µM
2) C=C(C)[C@H]1CC[C@@]2(C)C(C1)[C@H](C)CC[C@@H]2O (some centres undefined)	> 100 µM
3) C/C=C(\C)c1cc(=O)c2c(C)cc3c(c2o1)C(=O)c1c(O)c(C2CC(C)(N(C)C)C(OC(C)=O)C(C)O2)cc(C2CC(N(C)C)C(O)C(C)O2)c1C3=O (centres undefined)	> 50 µM
4) Cc1c(C)c2ccc3oc4ccccc4c3c2oc1=O	> 100 µM
5) Nc1nc(Cl)cc(NCC2(O)CCC2)n1	> 100 µM

Input: Any idea what TGI came out for "COc1ccc2c(c1)Cc1c(NCCN(C)C)ccc(C(=O)NCCCN(C)CCCNC(=O)c3ccc(NCCN(C)C)c4c3Nc3ccc(OC)cc3C4)c1N2" on K-562 leukemia?
Output: 3.14 µM

Input: Any idea what TGI came out for Cc1ccc([N+](=O)[O-])cc1S(=O)(=O)Nc1ccc(C2=NN(S(=O)(=O)c3cc([N+](=O)[O-])ccc3C)C(c3ccccc3)C2)cc1 (centres undefined) on K-562 leukemia?
Output: > 100 µM

Input: Any idea what TGI came out for Cc1c(C)c2ccc(OCC(O)COC(C)C)c(C)c2oc1=O (centres undefined) on K-562 leukemia?
Output: 71.4 µM

Input: Any idea what TGI came out for "COc1c/c(=C2\C=c3ccccc3=N2)[nH]/c1=C\c1[nH]c(C)cc1C" on K-562 leukemia?
Output: 8.33 µM

----------
- Test system: A498 renal
- ASSAY REMARKS: NCI tumour cell line growth inhibition, 48 h
Some compounds, each annotated with its measured TGI.

1) NC1N=C(c2ccc(Cl)cc2)C2=C(N1)c1ccccc1CC2 (stereo not drawn)	> 100 µM
2) CCOC(=O)Cc1csc(NC(NC(=O)OCC)(C(=O)OCC)C(F)(F)F)n1 (stereo not drawn)	> 100 µM
3) CC(=O)c1nc2ccccc2n1C(C)C(=O)c1ccccc1 (stereo not drawn)	> 100 µM

Input: What does the record list as TGI for "CCCCc1ccc(N=C(N)N)cc1" ?
Output: > 100 µM

Input: What does the record list as TGI for "O=C(Nc1ccc(C(F)(F)F)cc1)NC(F)(F)F" ?
Output: > 100 µM

Input: What does the record list as TGI for "COC(=O)CCC(=O)c1ccc2c(c1)CCC2" ?
Output: > 100 µM

Numbers sourced from PubChem BioAssay (NCI).
